Where do these numbers come from? They come from patent US20250019437A1.

Attribute: Binding Signal (fold over 6E7 parental antibody)
Target: T1, human TREM2 (triggering receptor expressed on myeloid cells 2) (human) (UniProt Q9NZC2)
T1 sequence (looked up): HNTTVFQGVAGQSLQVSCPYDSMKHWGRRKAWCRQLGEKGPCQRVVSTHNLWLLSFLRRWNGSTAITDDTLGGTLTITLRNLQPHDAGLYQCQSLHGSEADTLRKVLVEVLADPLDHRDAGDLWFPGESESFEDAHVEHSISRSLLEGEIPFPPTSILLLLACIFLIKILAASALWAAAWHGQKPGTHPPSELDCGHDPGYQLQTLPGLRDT
Assay: 1st screen, 10 nM Ab
measured_metric: Binding Signal (fold over 6E7 parental antibody) (fold)

6E7 antibody affinity modulation variant V1 (antibody, V domains shown) VH: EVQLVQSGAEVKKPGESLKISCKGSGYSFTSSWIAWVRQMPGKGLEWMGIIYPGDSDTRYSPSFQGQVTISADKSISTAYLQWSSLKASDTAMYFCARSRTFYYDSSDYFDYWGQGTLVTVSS VL: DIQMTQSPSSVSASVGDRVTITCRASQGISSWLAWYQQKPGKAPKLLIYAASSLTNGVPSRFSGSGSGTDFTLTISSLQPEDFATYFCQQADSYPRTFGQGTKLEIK: 1.68
6E7 antibody affinity modulation variant V73 (antibody, V domains shown) VH: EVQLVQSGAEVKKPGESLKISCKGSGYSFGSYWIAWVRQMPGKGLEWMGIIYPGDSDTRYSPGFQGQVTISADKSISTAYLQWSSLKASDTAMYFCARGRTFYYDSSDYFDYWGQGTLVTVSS VL: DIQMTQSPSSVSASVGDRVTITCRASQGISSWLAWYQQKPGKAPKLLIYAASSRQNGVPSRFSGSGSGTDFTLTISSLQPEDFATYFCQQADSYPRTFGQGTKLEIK: 5.12
6E7 antibody affinity modulation variant V48 (antibody, V domains shown) VH: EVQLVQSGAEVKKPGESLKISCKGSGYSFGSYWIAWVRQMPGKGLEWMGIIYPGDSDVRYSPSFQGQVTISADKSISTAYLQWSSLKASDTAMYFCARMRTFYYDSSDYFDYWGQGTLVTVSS VL: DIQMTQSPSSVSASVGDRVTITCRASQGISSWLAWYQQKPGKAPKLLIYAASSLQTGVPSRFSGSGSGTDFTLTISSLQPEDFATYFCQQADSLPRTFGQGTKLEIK: 2.42
6E7 antibody affinity modulation variant V27 (antibody, V domains shown) VH: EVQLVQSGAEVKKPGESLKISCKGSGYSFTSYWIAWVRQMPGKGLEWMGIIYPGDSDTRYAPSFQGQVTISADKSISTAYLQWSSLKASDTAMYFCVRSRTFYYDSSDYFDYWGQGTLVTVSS VL: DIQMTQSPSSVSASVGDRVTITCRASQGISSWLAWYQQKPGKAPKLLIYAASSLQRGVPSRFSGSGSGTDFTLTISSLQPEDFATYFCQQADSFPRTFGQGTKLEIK: 5.5
6E7 antibody affinity modulation variant V3 (antibody, V domains shown) VH: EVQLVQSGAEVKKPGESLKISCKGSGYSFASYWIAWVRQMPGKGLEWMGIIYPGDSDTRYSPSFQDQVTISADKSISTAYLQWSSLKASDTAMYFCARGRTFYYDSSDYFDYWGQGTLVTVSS VL: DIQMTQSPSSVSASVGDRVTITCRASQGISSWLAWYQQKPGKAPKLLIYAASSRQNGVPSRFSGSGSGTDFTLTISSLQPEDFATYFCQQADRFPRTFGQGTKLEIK: 1.97
